system: recombinant GST-p110y (Homo sapiens, UniProt P48736)
Construct: Residues 38-1102 of human P13Ky are subcloned into the BamH1 and EcoR1 sites
Sequence (P48736 38-1102): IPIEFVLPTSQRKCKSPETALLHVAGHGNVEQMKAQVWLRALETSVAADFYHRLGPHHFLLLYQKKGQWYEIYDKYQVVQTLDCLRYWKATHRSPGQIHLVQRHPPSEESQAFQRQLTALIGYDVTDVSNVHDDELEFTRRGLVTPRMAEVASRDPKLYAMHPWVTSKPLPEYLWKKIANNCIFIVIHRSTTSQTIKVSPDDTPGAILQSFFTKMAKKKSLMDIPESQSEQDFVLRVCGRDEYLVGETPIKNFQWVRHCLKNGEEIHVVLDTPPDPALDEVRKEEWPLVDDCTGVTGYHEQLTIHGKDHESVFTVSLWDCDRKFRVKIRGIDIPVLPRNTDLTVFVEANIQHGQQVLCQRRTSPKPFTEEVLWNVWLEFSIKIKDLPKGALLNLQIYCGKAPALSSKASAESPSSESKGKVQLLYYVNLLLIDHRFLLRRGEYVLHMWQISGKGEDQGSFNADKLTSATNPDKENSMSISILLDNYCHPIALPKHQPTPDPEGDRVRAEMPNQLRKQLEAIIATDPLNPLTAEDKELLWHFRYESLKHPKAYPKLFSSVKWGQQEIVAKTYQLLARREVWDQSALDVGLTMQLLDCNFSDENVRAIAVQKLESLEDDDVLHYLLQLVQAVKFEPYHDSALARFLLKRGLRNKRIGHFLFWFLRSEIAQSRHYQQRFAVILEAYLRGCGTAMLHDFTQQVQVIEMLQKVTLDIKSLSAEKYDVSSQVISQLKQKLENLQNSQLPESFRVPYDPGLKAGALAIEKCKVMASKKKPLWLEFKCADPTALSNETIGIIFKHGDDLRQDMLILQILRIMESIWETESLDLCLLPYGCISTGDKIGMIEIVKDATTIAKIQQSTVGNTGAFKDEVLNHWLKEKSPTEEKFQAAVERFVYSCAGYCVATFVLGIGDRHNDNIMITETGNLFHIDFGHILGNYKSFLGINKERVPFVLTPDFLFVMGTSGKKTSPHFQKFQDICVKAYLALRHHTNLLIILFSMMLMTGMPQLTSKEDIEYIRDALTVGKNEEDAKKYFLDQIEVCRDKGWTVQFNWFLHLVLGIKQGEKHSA
assay explanation: in vitro PI3Kγ kinase assay (Scintillation Proximity Assay, transfer of terminal phosphate of ATP to phosphatidylinositol)
condition parameters: 12.5 µM ATP, 15 µg/ml phosphatidylinositol, room temperature, 60 minutes
measured parameter: IC50 (µM)

Look over these answered cases.
Exam item: I'd like to know its IC50. The compound in question is `CCOC(=O)CCNC(=O)Nc1nc(C)c(-c2ccc(S(C)(=O)=O)c(F)c2)s1`
Marked response: 0.019

Exam item: Another compound: `CCc1cnc(CCNC(=O)Nc2nc(C)c(-c3ccc(S(C)(=O)=O)c(F)c3)s2)o1`
Marked response: 0.04

Exam item: Query `CC(=O)Nc1nc(C)c(-c2ccc(S(C)(=O)=O)c(-n3ccnc3)c2)s1` next
Marked response: 0.013

[a] CC(=O)Nc1nc(C)c(-c2cc(Br)c(S(N)(=O)=O)c(Br)c2)s1
[b] CC(=O)Nc1nc(C)c(-c2ccc(Cl)c(S(C)(=O)=O)c2)s1
[c] Cc1nc(NC(N)=O)sc1-c1ccc(Cl)c(S(C)(=O)=O)c1
Exam item: Could you please sort these 3 entries by IC50 from high to low? Give your ranking as a list of the labels in the requested order.
Marked response: b, a, c
(b: 0.018 µM, a: 0.009 µM, c: 0.005 µM)
